Target: α1a-adrenoceptor (recombinant) (Homo sapiens, UniProt P35348)
Sequence (P35348 whole entry): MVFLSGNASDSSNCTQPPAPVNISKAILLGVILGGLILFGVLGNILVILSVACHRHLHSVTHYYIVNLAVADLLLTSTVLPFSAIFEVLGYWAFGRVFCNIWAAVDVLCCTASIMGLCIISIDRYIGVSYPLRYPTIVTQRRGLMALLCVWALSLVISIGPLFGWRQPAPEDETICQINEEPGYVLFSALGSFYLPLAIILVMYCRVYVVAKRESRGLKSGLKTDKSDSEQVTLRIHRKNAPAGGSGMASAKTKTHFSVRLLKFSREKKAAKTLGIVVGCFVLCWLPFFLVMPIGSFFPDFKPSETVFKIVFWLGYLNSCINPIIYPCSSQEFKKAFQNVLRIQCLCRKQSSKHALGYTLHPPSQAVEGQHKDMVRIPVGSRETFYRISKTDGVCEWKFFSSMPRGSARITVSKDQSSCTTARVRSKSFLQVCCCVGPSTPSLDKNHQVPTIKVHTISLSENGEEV
Experiment: Radioligand binding, cloned α1a-adrenoceptor ([3H]prazosin)
Settings: read-out: Affinity for recombinant α1a-adrenoceptor, cloned receptors (Ki)
Structures can show the parent of a compound that is named as a salt.
Ki listing for selected compounds.
Write the answer as a number in nM, unit excluded.

Solved cases (5 shown):
{"COMPOUND": "Cc1c(-c2ccccc2)oc2c(C(=O)NCCCN3CCN(c4cc(Cl)ccc4OS(=O)(=O)C(F)(F)F)CC3)cccc2c1=O [Example 24, hydrochloride]", "SCALE_UNIT": "nM", "Ki": 4.21}
{"COMPOUND": "Cc1c(C(N)=O)oc2c(C(=O)NCCCN3CCN(c4ccccc4OCC(F)(F)F)CC3)cccc2c1=O [Example 10]", "SCALE_UNIT": "nM", "Ki": 0.173}
{"COMPOUND": "Cc1c(-c2ccccc2)oc2c(C(=O)NCCCN3CCN(c4cc(Cl)ccc4OCC(F)(F)F)CC3)cccc2c1=O [Example 22]", "SCALE_UNIT": "nM", "Ki": 0.25}
{"COMPOUND": "Cc1c(-c2ccccc2)oc2c(C(=O)NCCCN3CCN(c4ccccc4OCC(F)(F)F)CC3)cccc2c1=O [Example 15]", "SCALE_UNIT": "nM", "Ki": 0.07}
{"COMPOUND": "COc1ccc(C#N)cc1N1CCN(CCCNC(=O)c2cccc3c(=O)c(C)c(-c4ccccc4)oc23)CC1 [Example 18]", "SCALE_UNIT": "nM", "Ki": 4.18}

## Task Fill in the blank: the reported Ki of COc1ccc(OCC(F)(F)F)cc1N1CCN(CCCNC(=O)c2cccc3c(=O)c(C)c(-c4ccccc4)oc23)CC1 [Example 21] is ____.
## Result 2.54

## Task Given COc1ccc(Cl)cc1N1CCN(CCCNC(=O)c2cccc3c(=O)c(C)c(NC(=O)OC(C)(C)C)oc23)CC1.O [Example 3, monohydrate] , state its recorded Ki.
## Result 0.2

## Task Which Ki is reported for this compound? COc1ccc(OCC(F)(F)F)cc1N1CCN(CCCNC(=O)c2cccc3c(=O)c(C)c(C(N)=O)oc23)CC1 [Example 9]
## Result 28.6

## Task Any idea what Ki was measured for CCOC(=O)c1oc2c(C(=O)NCCCN3CCN(c4cc(Cl)ccc4OC)CC3)cccc2c(=O)c1C [Example 4] ?
## Result 0.21

## Task I'd like to know its Ki. The compound in question is COc1ccc(Cl)cc1N1CCN(CCCNC(=O)c2cccc3c(=O)c(C)c(C#N)oc23)CC1 [Example 11]
## Result 0.38

## Task Data request, read-out Ki, for COc1ccc(C(F)(F)F)cc1N1CCN(CCCNC(=O)c2cccc3c(=O)c(C)c(-c4ccccc4)oc23)CC1 [Example 17]
## Result 1.6

## Task Dear colleague, I am looking for the recorded Ki of the following compound: Cc1c(-c2ccccc2)oc2c(C(=O)NCCCN3CCN(c4ccc(F)cc4OCC(F)(F)F)CC3)cccc2c1=O [Example 19]
## Result 0.136

## Task // Ki lookup, key: Cc1c(C(N)=O)oc2c(C(=O)NCCCN3CCN(c4cc(Cl)ccc4O)CC3)cccc2c1=O [Example 12]
## Result 1.15

## Task For the compound shown here, COc1ccc(Cl)cc1N1CCN(CCCNC(=O)c2cccc3c(=O)c(C)c(C(C)=O)oc23)CC1 [Example 2] , give the reported Ki.
## Result 0.32

## Task Dear colleague, I am looking for the recorded Ki of the following compound: COc1ccc(Cl)cc1N1CCN(CCCNC(=O)c2cccc3c(=O)c(C)c(C(=O)N(C)C)oc23)CC1 [Example 6]
## Result 0.23
